Source of measurements: PubChem BioAssay (NCI)

test system: PC-3 prostate; assay: NCI tumour cell line growth inhibition, 48 h
The entries below come with measured TGI values attached.

[[record]]
molecule = "Cc1ccc(S(=O)(=O)OC2C(O)C(O)OC2C(c2cc(O)c3c(c2O)C(=O)c2ccccc2C3=O)c2cc(O)c3c(c2O)C(=O)c2ccccc2C3=O)cc1 (stereo not given)"
test_system = "PC-3 prostate"
test_readout = "TGI"
reported_measurement = "9.43 µM"

[[record]]
molecule = "Clc1ccc(C2=NN=C3C(c4ccccc4)=Nc4ccccc4N3C2)cc1"
test_system = "PC-3 prostate"
test_readout = "TGI"
reported_measurement = "> 100 µM"

[[record]]
molecule = "CSc1ccc(-c2cc(-c3nc4ccccc4[nH]3)no2)cc1"
test_system = "PC-3 prostate"
test_readout = "TGI"
reported_measurement = "> 100 µM"


// TGI value for O=C(O)CCC(=O)c1ccc2c(c1)C(C(=O)O)CC2 (stereo not given) : > 100 µM

// TGI value for O=C(O)c1ccc(CI)cc1 : 30.3 µM

// TGI value for COc1cc(F)c(F)c(Nc2ccc(I)cc2F)c1NS(=O)(=O)C1(C[C@H](O)CO)CC1 : > 10 µM

// TGI value for O=C1c2cc(Cl)ccc2NC(=NC2CCCC2)C2CSCN12 (stereo not given) : > 100 µM

// TGI value for Cn1c(C(=O)c2ccncc2)cc2ccccc21 : > 100 µM

// TGI value for CN(C)CCNc1ccc(CO)c2sc3ccc(O)cc3c(=O)c12 : 5.92 µM

// TGI value for COC(=O)c1cc2c3ccccc3n3c(=O)c4cc5ccc(N(S(=O)(=O)c6ccc(C)cc6)S(=O)(=O)c6ccc(C)cc6)cc5nc4c(n1)c23 : > 100 µM
